tgt: 2,3-epoxysqualene-lanosterol-cyclase (Rattus norvegicus)
Construct: Measuring the in-vivo Activity in the Rat after Oral Administration; from tissue; host or cells: living rat; 2,3-epoxysqualene measured in the liver
measurement-notes: In-vivo activity in the rat after oral administration: 2,3-epoxysqualene level in the liver
conditions-used: 1.0 mg/kg oral, 3 h after administration
reported-property: 2,3-epoxysqualene concentration in the liver (rat) (µg/g)
Reply numerically in µg/g, unit not repeated.

Prompt line: May I ask what 2,3-epoxysqualene concentration in the liver (rat) has been recorded for `CN(C)Cc1ccc([C@H]2CC[C@H](N(C)C(=S)Sc3ccc(Cl)cc3)CC2)cc1` ?
Response line: 136.5

Prompt line: Any idea what 2,3-epoxysqualene concentration in the liver (rat) was measured for `CN(C)Cc1ccc([C@H]2CC[C@H](N(C)C(=O)Oc3ccc(F)cc3)CC2)cc1.Cl` ?
Response line: 106.2

Prompt line: What measured 2,3-epoxysqualene concentration in the liver (rat) goes with `Cc1ccc(OC(=O)N(C)[C@H]2CC[C@H](c3ccc(CN(C)C)cc3)CC2)cc1.Cl` ?
Response line: 117.9

Prompt line: Look up 2,3-epoxysqualene concentration in the liver (rat) for this molecule: `CN(C)Cc1ccc([C@H]2CC[C@H](N(C)C(=S)SCc3ccc(F)cc3)CC2)cc1.Cl`
Response line: 68.1

----------
tgt: 2,3-epoxysqualene-lanosterol-cyclase (Rattus norvegicus)
Construct: Measuring the in-vivo Activity in the Rat after Oral Administration; from tissue; host or cells: living rat; 2,3-epoxysqualene measured in the liver
measurement-notes: In-vivo activity in the rat after oral administration: 2,3-epoxysqualene level in the liver
conditions-used: 0.3 mg/kg oral, 3 h after administration
Give measured 2,3-epoxysqualene concentration in the liver (rat) for each item. Keep answers brief.
Write the number in µg/g without appending the unit.

Prompt line: # 2,3-epoxysqualene concentration in the liver (rat) lookup, item Cc1ccc(OC(=O)N(C)[C@H]2CC[C@H](c3ccc(CN(C)C)cc3)CC2)cc1.Cl [O]
Response line: 72.6

Prompt line: Entry CN(C)Cc1ccc([C@H]2CC[C@H](N(C)C(=O)Oc3ccc(F)cc3)CC2)cc1.Cl [R] has what 2,3-epoxysqualene concentration in the liver (rat)?
Response line: 79.7

Prompt line: Which 2,3-epoxysqualene concentration in the liver (rat) reading was recorded for the compound CN(C)Cc1ccc([C@H]2CC[C@H](N(C)C(=S)Oc3ccc(Cl)cc3)CC2)cc1.Cl [G] ?
Response line: 57.5

Prompt line: Please look up its 2,3-epoxysqualene concentration in the liver (rat): CN(C)Cc1ccc([C@H]2CC[C@H](N(C)C(=S)SCc3cccc(F)c3)CC2)cc1.Cl [B]
Response line: 98.5

Prompt line: Given CN(C)Cc1ccc([C@H]2CC[C@H](N(C)C(=S)SCc3ccc(F)cc3)CC2)cc1.Cl [C] , state its recorded 2,3-epoxysqualene concentration in the liver (rat).
Response line: 77.8

Prompt line: Name the recorded 2,3-epoxysqualene concentration in the liver (rat) for CN(C)Cc1ccc([C@H]2CC[C@H](N(C)C(=O)Oc3ccc(Cl)cc3)CC2)cc1.Cl [E] .
Response line: 63.4

Prompt line: I'd like to know its 2,3-epoxysqualene concentration in the liver (rat). The compound in question is CN(C)Cc1ccc([C@H]2CC[C@H](N(C)C(=O)Sc3ccc(Cl)cc3)CC2)cc1.Cl [H]
Response line: 70.3

----------
Hi there, I'd appreciate the recorded 2,3-epoxysqualene concentration in the liver (rat) for every entry that follows.
tgt: 2,3-epoxysqualene-lanosterol-cyclase (Rattus norvegicus, UniProt P48450)
Construct: Measuring the in-vivo Activity in the Rat after Oral Administration; from tissue; host or cells: living rat; 2,3-epoxysqualene measured in the liver
Sequence (P48450 whole entry): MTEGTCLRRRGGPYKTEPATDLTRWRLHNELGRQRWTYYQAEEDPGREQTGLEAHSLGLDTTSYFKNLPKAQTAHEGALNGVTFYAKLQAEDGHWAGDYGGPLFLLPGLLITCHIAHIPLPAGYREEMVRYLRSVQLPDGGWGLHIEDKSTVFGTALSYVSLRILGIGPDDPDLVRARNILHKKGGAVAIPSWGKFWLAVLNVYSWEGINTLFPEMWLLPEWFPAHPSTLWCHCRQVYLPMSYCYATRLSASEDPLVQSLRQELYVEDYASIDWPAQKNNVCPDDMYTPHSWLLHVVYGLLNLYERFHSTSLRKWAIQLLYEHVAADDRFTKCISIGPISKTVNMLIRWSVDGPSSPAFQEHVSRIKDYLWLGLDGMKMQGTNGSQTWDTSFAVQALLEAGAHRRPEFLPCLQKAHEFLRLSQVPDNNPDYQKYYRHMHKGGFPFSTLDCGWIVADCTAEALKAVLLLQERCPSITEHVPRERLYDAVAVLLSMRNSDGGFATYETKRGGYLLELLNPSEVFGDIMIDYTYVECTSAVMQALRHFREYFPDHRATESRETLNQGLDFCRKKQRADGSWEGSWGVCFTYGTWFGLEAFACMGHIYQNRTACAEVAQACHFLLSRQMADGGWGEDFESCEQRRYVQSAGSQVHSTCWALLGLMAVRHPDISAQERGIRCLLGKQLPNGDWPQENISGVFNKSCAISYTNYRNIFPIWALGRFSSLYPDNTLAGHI
measurement-notes: In-vivo activity in the rat after oral administration: 2,3-epoxysqualene level in the liver
conditions-used: 0.3 mg/kg oral, 8 h after administration
Note: state the figure and append the unit.

Prompt line: Give the measured 2,3-epoxysqualene concentration in the liver (rat) of `CN(C)Cc1ccc([C@H]2CC[C@H](N(C)C(=S)Oc3ccc(Cl)cc3)CC2)cc1.Cl` .
Response line: 225.5 µg/g

Prompt line: If you can, please state the reported 2,3-epoxysqualene concentration in the liver (rat) value of `Cc1ccc(OC(=O)N(C)[C@H]2CC[C@H](c3ccc(CN(C)C)cc3)CC2)cc1.Cl` .
Response line: 113.2 µg/g

Prompt line: Need 2,3-epoxysqualene concentration in the liver (rat), item `CN(C)Cc1ccc([C@H]2CC[C@H](N(C)C(=O)Oc3ccc(F)cc3)CC2)cc1.Cl`
Response line: 191.0 µg/g

Prompt line: Item `CN(C)Cc1ccc([C@H]2CC[C@H](N(C)C(=S)SCc3ccc(F)cc3)CC2)cc1.Cl` has what recorded 2,3-epoxysqualene concentration in the liver (rat)?
Response line: 196.5 µg/g

Where do the numbers come from? From patent US20020019536A1.
